Cited source for all entries: PubChem BioAssay (NCI)

Test system: MDA-MB-468 breast
methodDescription: NCI-60 one-dose screen, 48 h
experimentalSetup: 10 µM unless noted
About 83,000 compounds went through this panel and 20% of them were active in at least one assay; those are over-represented in the sample as a whole. Active and inactive are the calls of the source. How the source made its calls: active means growth percent below 10; inactive means the rest.
Respond with a class label; see yes (1) = active, no (0) = inactive

{"columns": ["compound", "answerLabel"],
 "data": [
  ["Cc1cc2c(cc1Cl)C(=O)/C(=C/c1ccccc1)O2", "yes (1)"],
  ["CC(C)Sc1nc(NCCc2c[nH]c3ccccc23)c(C#N)c(-c2ccccc2)n1", "yes (1)"],
  ["COc1ccc2oc(=O)c(C3(C)NC(=O)c4c(/C=C/C(=O)OC(C)(C)C)cccc4N3)cc2c1 (configuration not stated)", "no (0)"],
  ["Nc1nc(-c2ccccc2)c(N=Nc2ccc(Cl)cc2[N+](=O)[O-])s1", "no (0)"],
  ["Cn1cc(-c2nc(N)nnc2-c2c[nH]c3ccc(Br)cc23)c2cc(Br)cnc21", "yes (1)"]
]}

Call for entry S=C(Nc1ccc(OCc2nc3ccccc3[nH]2)cc1)NC1CCCCC1 : no (0)

Same question for O=C(CN1C(=O)/C(=C/c2ccccc2F)SC1=S)N1CCOCC1 please. yes (1)

Please do the same for CC(=O)Nc1ccc(-n2cnc3ccc(-c4ccc(O)cc4)cc32)cc1 as well. no (0)
